Values from paper PMC7956476

Reported Protein-Complex Kb (M^−1) × 10^4 values for the following molecules.
# System tested: bovine serum albumin (BSA) (Bos taurus, UniProt P02769)
# Sequence (P02769 25-607): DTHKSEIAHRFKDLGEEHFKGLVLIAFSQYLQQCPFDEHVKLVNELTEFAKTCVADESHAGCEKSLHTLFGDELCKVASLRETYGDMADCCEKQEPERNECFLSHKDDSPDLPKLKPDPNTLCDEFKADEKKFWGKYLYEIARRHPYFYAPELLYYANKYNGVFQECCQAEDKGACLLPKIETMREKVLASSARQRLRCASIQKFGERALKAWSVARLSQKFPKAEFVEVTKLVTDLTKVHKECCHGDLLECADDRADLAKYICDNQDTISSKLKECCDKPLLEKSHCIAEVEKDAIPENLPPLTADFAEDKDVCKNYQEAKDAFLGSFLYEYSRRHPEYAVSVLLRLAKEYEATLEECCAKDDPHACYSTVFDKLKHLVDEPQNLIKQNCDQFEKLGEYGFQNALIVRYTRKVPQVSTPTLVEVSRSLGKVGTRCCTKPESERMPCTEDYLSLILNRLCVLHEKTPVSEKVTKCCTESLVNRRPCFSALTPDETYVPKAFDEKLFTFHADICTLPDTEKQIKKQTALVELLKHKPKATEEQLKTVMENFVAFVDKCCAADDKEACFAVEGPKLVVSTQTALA
# Method: Albumin binding by absorption spectroscopy titration

| Molecule | Protein-Complex Kb (M^−1) × 10^4 |
| --- | --- |
| [Ag+].[O-][Cl+3]([O-])([O-])[O-].c1ccc2nc(-c3nc4ccccc4s3)ccc2c1.c1ccc2nc(-c3nc4ccccc4s3)ccc2c1 [Complex Q7, [Ag(L2)2]ClO4] | 9.38 (M^−1) × 10^4 |
| O=S(=O)([O-])C(F)(F)F.[Ag+] [AgCF3SO3, silver trifluoromethanesulfonate, reference compound] | 4.46 (M^−1) × 10^4 |
| O=[N+]([O-])[O-].[Ag+] [AgNO3, silver nitrate, reference compound] | 4.49 (M^−1) × 10^4 |
